Target: Prostaglandin E2 receptor EP3 subtype (Homo sapiens)
Experiment: Binding affinity to EP3 receptor
Collected Ki values appear next to each entry.

A selection of reference data follows.
>>> print(df.to_string())
                                   molecule                                testtarget  readoutlabel               result
0  Cc1ccc(OCc2ccccc2)c(CCCc2ccccc2CCC(=O)NS(=O)(=O)c2cccs2)c1  Prostaglandin E2 receptor EP3 subtype (Homo sapiens)            Ki   56 nM (antagonist)
1  Cc1ccc(OCc2c(Cl)cccc2Cl)c(/C=C/Cc2ccccc2/C=C/C(=O)O)c1  Prostaglandin E2 receptor EP3 subtype (Homo sapiens)            Ki    3 nM (antagonist)
2        O=C(O)/C=C/c1ccccc1Cc1ccc2ccccc2c1  Prostaglandin E2 receptor EP3 subtype (Homo sapiens)            Ki   47 nM (antagonist)
3  COc1ccc(Br)cc1S(=O)(=O)NC(=O)/C=C/c1ccccc1Cc1ccc2cc(OCc3ccccc3)ccc2c1  Prostaglandin E2 receptor EP3 subtype (Homo sapiens)            Ki  0.9 nM (antagonist)

Now turn to the next compound.
Prompt: Indicate its recorded Ki; the compound in question is `O=C(O)/C=C/c1ccccc1Cc1ccc2cc(OCc3ccccc3)ccc2c1`
Response: 3.2 nM (antagonist)

* * *

Collected remaining at 3 h values appear next to each entry.
Assay: Stability in rat hepatocytes after 3 hrs
Assay type: ADME, cell-based, Hepatocyte
Conditions: read-out: Stability
Express the result in % but write the number alone.

A selection of reference data follows.
>>> print(df.to_string())
                                   molecule  outputunit  resultnumber
0  Cc1ccc(OCc2ccccc2)c(C/C=C/c2ccccc2/C=C/C(=O)O)c1           %             8
1  O=C(/C=C/c1ccccc1Cc1ccc2ccccc2c1)NS(=O)(=O)c1cccs1           %            43
2  Cc1ccc(OCc2ccccc2)c(/C=C/Cc2ccccc2/C=C/C(=O)O)c1           %             8

Now turn to the next compound.
Prompt: Indicate its recorded remaining at 3 h; the compound in question is `COc1ccc(Br)cc1S(=O)(=O)NC(=O)/C=C/c1ccccc1Cc1ccc2ccccc2c1`
Response: 30

* * *

Assay: Clearance in Sprague-Dawley rat at 10 mg/kg, po and 5 mg/kg, iv
Type: ADME, organism-based
Conditions: in vivo
readoutLabel: clearance (mL/min)
Express the result in mL/min but write the number alone.

A selection of reference data follows.
>>> df
                                   molecule  readoutlabel  outputunit  resultnumber
0  Cc1ccc(OCc2ccccc2)c(/C=C/Cc2ccccc2/C=C/C(=O)O)c1     clearance      mL/min            10
1  Cc1ccc(OCc2ccccc2)c(C/C=C/c2ccccc2/C=C/C(=O)O)c1     clearance      mL/min            10

Now turn to the next compound.
Prompt: Indicate its recorded clearance; the compound in question is `O=C(O)/C=C/c1ccccc1Cc1ccc2cc(OCc3ccccc3)ccc2c1`
Response: 3.1

* * *

Target: Prostaglandin E2 receptor EP3 subtype (Homo sapiens, UniProt P43115)
Sequence (P43115 whole entry): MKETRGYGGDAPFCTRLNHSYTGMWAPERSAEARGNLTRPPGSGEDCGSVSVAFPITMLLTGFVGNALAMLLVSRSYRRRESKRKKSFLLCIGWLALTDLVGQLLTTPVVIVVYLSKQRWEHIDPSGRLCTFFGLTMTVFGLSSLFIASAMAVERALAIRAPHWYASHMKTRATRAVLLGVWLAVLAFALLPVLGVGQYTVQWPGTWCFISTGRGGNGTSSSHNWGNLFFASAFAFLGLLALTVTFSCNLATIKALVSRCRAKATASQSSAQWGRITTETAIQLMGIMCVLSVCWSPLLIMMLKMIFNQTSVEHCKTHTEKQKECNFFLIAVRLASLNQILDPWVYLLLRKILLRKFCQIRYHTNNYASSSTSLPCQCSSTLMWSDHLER
Experiment: Binding affinity to EP3 receptor
readoutLabel: Ki

                                   molecule                                testtarget  readoutlabel               result
0  COc1cc(C/C=C/c2ccccc2/C=C/C(=O)NS(=O)(=O)c2cccs2)ccc1OCc1ccccc1  Prostaglandin E2 receptor EP3 subtype (Homo sapiens, UniProt P43115)            Ki  1.6 nM (antagonist)
1  COc1cc(/C=C/Cc2ccccc2/C=C/C(=O)NS(=O)(=O)c2cccs2)ccc1OCc1ccccc1  Prostaglandin E2 receptor EP3 subtype (Homo sapiens, UniProt P43115)            Ki  1.6 nM (antagonist)
2  Cc1ccc(OCc2ccccc2)c(C/C=C/c2ccccc2/C=C/C(=O)NS(=O)(=O)c2cccs2)c1  Prostaglandin E2 receptor EP3 subtype (Homo sapiens, UniProt P43115)            Ki   10 nM (antagonist)
3  O=C(/C=C/c1ccccc1C/C=C/c1ccccc1)NS(=O)(=O)c1cccs1  Prostaglandin E2 receptor EP3 subtype (Homo sapiens, UniProt P43115)            Ki    5 nM (antagonist)
4  COc1ccc(Br)cc1S(=O)(=O)NC(=O)/C=C/c1ccccc1Cc1ccc2ccccc2c1  Prostaglandin E2 receptor EP3 subtype (Homo sapiens, UniProt P43115)            Ki  0.6 nM (antagonist)

Prompt: Indicate its recorded Ki; the compound in question is `O=C(/C=C/c1ccccc1/C=C/Cc1ccccc1)NS(=O)(=O)c1cccs1`
Response: 5 nM (antagonist)

Prompt: Indicate its recorded Ki; the compound in question is `COc1ccc(/C=C/Cc2ccccc2/C=C/C(=O)NS(=O)(=O)c2cccs2)cc1`
Response: 2.4 nM (antagonist)

Prompt: Indicate its recorded Ki; the compound in question is `Cc1ccc(OCc2ccccc2)c(CCCc2ccccc2CCC(=O)O)c1`
Response: 65 nM (antagonist)

Prompt: Indicate its recorded Ki; the compound in question is `Cc1ccc(OCc2ccccc2)c(C/C=C/c2ccccc2/C=C/C(=O)O)c1`
Response: 9 nM (antagonist)

Prompt: Indicate its recorded Ki; the compound in question is `COc1ccc(C/C=C/c2ccccc2/C=C/C(=O)NS(=O)(=O)c2cccs2)cc1`
Response: 2.4 nM (antagonist)

Prompt: Indicate its recorded Ki; the compound in question is `O=C(/C=C/c1ccccc1Cc1ccc2cc(OCc3ccccc3)ccc2c1)NS(=O)(=O)c1cccs1`
Response: 0.6 nM (antagonist)

Prompt: Indicate its recorded Ki; the compound in question is `Cc1ccc(OCc2ccccc2)c(/C=C/Cc2ccccc2/C=C/C(=O)O)c1`
Response: 9 nM (antagonist)

Prompt: Indicate its recorded Ki; the compound in question is `COc1ccc(/C=C/Cc2ccccc2/C=C/C(=O)O)cc1`
Response: 68 nM (antagonist)

Prompt: Indicate its recorded Ki; the compound in question is `O=C(O)/C=C/c1ccccc1C/C=C/c1ccccc1`
Response: 100 nM (antagonist)

Prompt: Indicate its recorded Ki; the compound in question is `Cc1ccc(OCc2ccccc2)c(/C=C/Cc2ccccc2/C=C/C(=O)NS(=O)(=O)c2cccs2)c1`
Response: 10 nM (antagonist)

Prompt: Indicate its recorded Ki; the compound in question is `COc1cc(/C=C/Cc2ccccc2/C=C/C(=O)O)ccc1OCc1ccccc1`
Response: 8 nM (antagonist)

* * *

Assay: Bioavailability in Sprague-Dawley rat at 10 mg/kg, po and 5 mg/kg, iv
Type: ADME, organism-based
Conditions: in vivo
Collected bioavailability values appear next to each entry.
Express the result in % but write the number alone.

A selection of reference data follows.
>>> print(df.to_string())
                                   molecule  resultnumber
0  Cc1ccc(OCc2ccccc2)c(C/C=C/c2ccccc2/C=C/C(=O)O)c1            97
1  COc1ccc(Br)cc1S(=O)(=O)NC(=O)/C=C/c1ccccc1Cc1ccc2ccccc2c1            72
2  Cc1ccc(OCc2c(Cl)cccc2Cl)c(/C=C/Cc2ccccc2/C=C/C(=O)O)c1            74
3  O=C(O)/C=C/c1ccccc1Cc1ccc2cc(OCc3ccccc3)ccc2c1            59
4  Cc1ccc(OCc2ccccc2)c(/C=C/Cc2ccccc2/C=C/C(=O)O)c1            97

Prompt: Indicate its recorded bioavailability; the compound in question is `O=C(/C=C/c1ccccc1Cc1ccc2ccccc2c1)NS(=O)(=O)c1cccs1`
Response: 144

* * *

Assay: Half life in Sprague-Dawley rat at 10 mg/kg, po and 5 mg/kg, iv
Assay type: ADME, organism-based
Settings: in vivo
Collected half-life values appear next to each entry.
Express the result in h but write the number alone.

A selection of reference data follows.
>>> df
                                   molecule  readoutlabel  resultnumber
0  O=C(/C=C/c1ccccc1Cc1ccc2ccccc2c1)NS(=O)(=O)c1cccs1     half-life             3
1  O=C(O)/C=C/c1ccccc1Cc1ccc2cc(OCc3ccccc3)ccc2c1     half-life             3
2  Cc1ccc(OCc2c(Cl)cccc2Cl)c(/C=C/Cc2ccccc2/C=C/C(=O)O)c1     half-life             2
3  COc1ccc(Br)cc1S(=O)(=O)NC(=O)/C=C/c1ccccc1Cc1ccc2ccccc2c1     half-life             4
4  Cc1ccc(OCc2ccccc2)c(C/C=C/c2ccccc2/C=C/C(=O)O)c1     half-life             2

Now turn to the next compound.
Prompt: Indicate its recorded half-life; the compound in question is `Cc1ccc(OCc2ccccc2)c(/C=C/Cc2ccccc2/C=C/C(=O)O)c1`
Response: 2
